Target: full-length human PDE4B2 (Homo sapiens, UniProt Q07343)
Construct: and the full length human PDE4B2 short isoform; made in house; cytosol fraction of cell lysate
Sequence (Q07343 1-564 isoform Q07343-2): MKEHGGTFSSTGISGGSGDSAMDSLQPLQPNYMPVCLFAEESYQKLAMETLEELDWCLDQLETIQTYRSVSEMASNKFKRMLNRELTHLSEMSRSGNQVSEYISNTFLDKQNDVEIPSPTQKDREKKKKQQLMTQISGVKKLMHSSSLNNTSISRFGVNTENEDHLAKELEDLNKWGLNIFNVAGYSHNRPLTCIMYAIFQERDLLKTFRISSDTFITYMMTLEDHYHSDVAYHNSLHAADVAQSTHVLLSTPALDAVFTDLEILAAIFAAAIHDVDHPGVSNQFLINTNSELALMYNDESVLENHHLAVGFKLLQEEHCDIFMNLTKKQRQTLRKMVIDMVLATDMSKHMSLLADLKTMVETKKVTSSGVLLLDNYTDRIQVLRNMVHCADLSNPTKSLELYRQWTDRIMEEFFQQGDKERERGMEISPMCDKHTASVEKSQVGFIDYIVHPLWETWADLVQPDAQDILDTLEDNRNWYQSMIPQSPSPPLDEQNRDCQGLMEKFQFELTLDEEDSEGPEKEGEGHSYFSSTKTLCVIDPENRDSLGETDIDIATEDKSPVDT
Test: PDE4B2 short form enzyme activation radio-assay (Experiment 1, Protocol A or B)
Format: biochemical
Settings: 30 μM; Protocol B; mean % increase in counts over basal activity
Endpoint: activation at 30 µM (%)

Example cases with answers are listed next.
CNC(=O)c1nc(-c2ccc(Cl)c(F)c2)nn1CC(=O)NCc1ccc2[nH]ncc2c1 -7.9
CNC(=O)c1cc(-c2ccc(Cl)c(F)c2)nn1CC(=O)NCc1cccc(F)c1 17.1
CNC(=O)c1cc(-c2ccc(Cl)c(F)c2)nn1CC(=O)NCc1cccc(OC)c1 21
COCCNC(=O)c1nc(-c2ccc(Cl)c(F)c2)nn1CC(=O)NCc1cccc(F)c1 -22.4

1: CCOC(=O)c1cc(-c2ccc(Cl)cc2)nn1CC(=O)NCc1cccc(OC)c1
2: CNC(=O)c1nc(-c2ccc(Cl)c(F)c2)nn1CC(=O)NCc1cccc(F)c1
[Q] Pick the one with the larger activation at 30 µM: 1 vs 2 Bench note: the answer is the label of the chosen record.
[A] 2
(2: 23.3%, 1: 7.6%)

###

Biological target: full-length human PDE4D5 (Homo sapiens, UniProt Q08499)
Construct: stably expressed the full-length human PDE4D5, PDE4A4 and PDE4B1 long isoforms; made in house; cytosol fraction of cell lysate
Sequence (Q08499 1-745 isoform Q08499-6): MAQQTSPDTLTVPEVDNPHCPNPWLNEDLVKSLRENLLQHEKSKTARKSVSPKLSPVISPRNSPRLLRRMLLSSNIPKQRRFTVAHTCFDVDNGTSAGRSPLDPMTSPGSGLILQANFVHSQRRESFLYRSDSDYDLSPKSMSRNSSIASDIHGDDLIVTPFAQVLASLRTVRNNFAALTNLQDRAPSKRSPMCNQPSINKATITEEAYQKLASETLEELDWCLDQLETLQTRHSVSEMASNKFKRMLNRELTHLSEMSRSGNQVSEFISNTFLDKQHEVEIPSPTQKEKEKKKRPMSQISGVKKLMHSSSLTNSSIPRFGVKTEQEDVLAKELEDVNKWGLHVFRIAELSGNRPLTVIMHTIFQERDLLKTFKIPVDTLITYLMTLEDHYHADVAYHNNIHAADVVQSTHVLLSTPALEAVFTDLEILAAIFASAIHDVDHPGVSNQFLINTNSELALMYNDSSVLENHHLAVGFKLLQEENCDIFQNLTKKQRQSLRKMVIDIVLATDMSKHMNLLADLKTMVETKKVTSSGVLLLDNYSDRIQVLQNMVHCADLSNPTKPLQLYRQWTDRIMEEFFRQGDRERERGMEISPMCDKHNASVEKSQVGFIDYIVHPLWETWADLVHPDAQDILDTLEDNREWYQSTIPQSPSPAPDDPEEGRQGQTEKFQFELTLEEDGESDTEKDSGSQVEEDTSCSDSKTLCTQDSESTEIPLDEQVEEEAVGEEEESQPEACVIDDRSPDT
Test: PDE4D5 long form enzyme activation radio-assay (Experiment 1, Protocol A or B)
Type: biochemical
Settings: 30 μM; Protocol B; mean % increase in counts over basal activity
Endpoint: activation at 30 µM (%)

Compound	Endpoint	Measure unit	Test value
CNC(=O)c1cc(-c2ccc(Cl)c(F)c2)nn1CC(=O)NCc1cccc(F)c1 [Example 26]	activation at 30 µM	%	38.2
COC(=O)c1cc(-c2cccc(OC)c2)nn1CC(=O)NCc1cccc(F)c1 [Example 24]	activation at 30 µM	%	87.4
CCOC(=O)c1cc(-c2ccc(Cl)cc2)nn1CC(=O)NCc1cccc(OC)c1 [Example 27]	activation at 30 µM	%	75.1

1: COCCNC(=O)c1nc(-c2ccc(Cl)c(F)c2)nn1CC(=O)NCc1cccc(F)c1 [Example 20]
2: CNC(=O)c1cc(-c2ccc(Cl)c(F)c2)nn1CC(=O)NCc1cccc(OC)c1 [Example 25]
3: COCCNC(=O)c1nc(-c2ccc(Cl)c(F)c2)nn1CC(=O)NCc1cccc(OC)c1 [Example 21]
[Q] Rank descending by activation at 30 µM. Your reply should list the labels following the order given in the request.
[A] 3, 1, 2

A: CCc1nc(-c2ccc(Cl)c(F)c2)cn1CC(=O)NCc1cc(Cl)cc(Cl)c1 [Example 30]
B: CCc1nc(-c2ccc(Cl)c(F)c2)nn1CC(=O)NCc1cnc[nH]1 [Example 29]
[Q] Pick the one with the larger activation at 30 µM: A vs B Bench note: the answer is the label of the chosen record.
[A] A

###

Target: full-length human PDE4B1 (Homo sapiens)
Construct: stably expressed the full-length human PDE4D5, PDE4A4 and PDE4B1 long isoforms; made in house; cytosol fraction of cell lysate
Sequence (Q07343 whole entry, canonical isoform): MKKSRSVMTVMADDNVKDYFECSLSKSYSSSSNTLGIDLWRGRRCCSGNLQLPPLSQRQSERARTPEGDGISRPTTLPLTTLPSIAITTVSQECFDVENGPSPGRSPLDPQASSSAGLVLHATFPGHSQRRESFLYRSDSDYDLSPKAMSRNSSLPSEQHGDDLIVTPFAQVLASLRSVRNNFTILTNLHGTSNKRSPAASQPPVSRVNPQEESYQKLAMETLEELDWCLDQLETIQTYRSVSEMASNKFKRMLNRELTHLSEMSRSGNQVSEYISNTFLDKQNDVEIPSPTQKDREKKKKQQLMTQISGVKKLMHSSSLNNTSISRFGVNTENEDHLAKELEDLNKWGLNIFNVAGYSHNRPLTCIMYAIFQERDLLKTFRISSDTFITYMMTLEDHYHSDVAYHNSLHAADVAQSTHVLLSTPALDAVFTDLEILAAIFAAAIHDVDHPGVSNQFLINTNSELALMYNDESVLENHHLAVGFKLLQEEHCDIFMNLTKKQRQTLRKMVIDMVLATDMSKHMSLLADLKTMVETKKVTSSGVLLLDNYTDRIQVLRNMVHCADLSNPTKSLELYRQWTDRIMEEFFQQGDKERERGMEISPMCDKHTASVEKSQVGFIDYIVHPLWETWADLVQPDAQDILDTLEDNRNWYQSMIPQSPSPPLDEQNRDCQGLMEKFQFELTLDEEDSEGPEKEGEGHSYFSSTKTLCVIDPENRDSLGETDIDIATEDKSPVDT
Assay: PDE4B1 long form enzyme activation radio-assay (Experiment 1, Protocol A or B)
Type: biochemical
Conditions: Protocol B, mean % increase in counts over basal activity
Endpoint: activation at 30 µM (%)

Example cases with answers are listed next.
Molecule	activation at 30 µM / %
COc1cccc(CNC(=O)Cn2nc(-c3ccc(Cl)c(F)c3)nc2C#N)c1 [Example 16]	52.2
CCOC(=O)c1nc(-c2ccc(Cl)c(F)c2)nn1CC(=O)NCc1cccc(F)c1 [Example 4]	80.5
CNC(=O)c1nc(-c2ccc(Cl)c(F)c2)nn1CC(=O)NCc1cccc(OC)c1 [Example 12]	89.2

P: CCOC(=O)c1nc(-c2ccc(Cl)c(F)c2)nn1CC(=O)NCc1cccc(OC)c1 [Example 5]
Q: CNC(=O)c1nc(-c2ccc(Cl)c(F)c2)nn1CC(=O)NCc1cccc(F)c1 [Example 10]
[Q] Pick the one with the larger activation at 30 µM: P vs Q Bench note: the answer is the label of the chosen record.
[A] Q
(Q: 85.1%, P: 44%)

###

Molecular target: full-length human PDE4D5 (Homo sapiens, UniProt Q08499)
Construct: stably expressed the full-length human PDE4D5, PDE4A4 and PDE4B1 long isoforms; made in house; cytosol fraction of cell lysate
Test: PDE4D5 long form enzyme activation radio-assay (Experiment 1, Protocol A or B)
Type: biochemical
Details: 30 μM; Protocol B; mean % increase in counts over basal activity
Endpoint: activation at 30 µM (%)

Example cases with answers are listed next.
Compound	Measure unit	activation at 30 µM
CCNC(=O)c1nc(-c2ccc(Cl)c(F)c2)nn1CC(=O)NCc1cccc(F)c1 [Example 19]	%	84.1
CNC(=O)c1nc(-c2ccc(Cl)c(F)c2)nn1CC(=O)NCc1ccc2[nH]ncc2c1 [Example 28]	%	101
COc1cccc(CNC(=O)Cn2nc(-c3ccc(Cl)c(F)c3)nc2C(=O)N(C)C)c1 [Example 18]	%	83.9
CCOC(=O)c1cc(-c2ccc(Cl)cc2)nn1CC(=O)NCc1cccc(F)c1 [Example 23]	%	93.7

I: COc1cccc(CNC(=O)Cn2nc(-c3ccc(Cl)c(F)c3)nc2C(=O)NC(C)C)c1 [Example 17]
II: O=C(Cn1nc(-c2ccc(Cl)c(F)c2)nc1C(=O)NC1CCCCC1)NCc1cccc(F)c1 [Example 22]
[Q] Pick the one with the larger activation at 30 µM: I vs II Bench note: the answer is the label of the chosen record.
[A] I
(I: 81.1%, II: 53.1%)

These data points were gathered from patent US11046660B2.
